As shown below, each of these compounds has a reported max response value.
test: qHTS Assay for Lipid Storage Modulators (AID 1519); details: Drosophila S3 cells, BODIPY lipid droplet/cell ratio, laser cytometry; measured here: lipid channel max response; cells loaded with oleic acid
Results filed as inconclusive are left out.
# value in %; strip the unit string

c1ccc2c(NC3CCNCC3)nc(-c3ccoc3)nc2c1 ... 2.41
CN1CCN(c2ncc3nc(-c4cccs4)c(=O)n(-c4ccccc4)c3n2)CC1 ... 18.9
CS(=O)(=O)N1CCC2(CCN(c3cccc(-c4ccccc4)c3)CC2)CC1 ... 18.7

Input: Which max response is reported for this compound? CNc1ccnc(-c2ccccc2OC)n1
Output: 26.2

Input: Entry under review: Cc1cccc(CNc2ncncc2-c2ccc3c(c2)OCO3)c1 . Reported max response?
Output: 23.1

Input: Report max response for COCC(=O)N1CCC2(CC1)CN(C(=O)Nc1cccc(F)c1)C2 please.
Output: 29

Input: // returns reported max response for input O=C(c1cccc(F)c1)N1CCC2(CC1)CCN(c1cccc(-c3ccccc3)c1)CC2
Output: -13.5

Input: Given the compound CNC(=O)[C@H]1O[C@@H](n2cnc3c(NCc4cccc(I)c4)ncnc32)[C@H](O)[C@H]1O , what is its reported max response?
Output: 56.8

Input: Give its max response value. Item: COCCn1c(=O)c(C)nc2cnc(N(C)C)nc21
Output: 22.8

---

molecular target: Calcium and integrin-binding protein 1 (Homo sapiens) (UniProt Q99828); experiment: Primary qHTS for Identification of Calcium Integrin Binding Protein 1 (CIB1) Competitor (AID 1508620); conditions: CIB1-GST / FITC-alphaIIb peptide fluorescence polarization; series mostly up to 114 µM;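 also: GST tagged CIB1 binding a fluorescein labelled alphaIIb integrin peptide tracer; top concentration of the series differs between compounds; % is scaled to controls: 0 for no effect and ±100 for the full control effect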
Sequence (Q99828 whole entry, looked up): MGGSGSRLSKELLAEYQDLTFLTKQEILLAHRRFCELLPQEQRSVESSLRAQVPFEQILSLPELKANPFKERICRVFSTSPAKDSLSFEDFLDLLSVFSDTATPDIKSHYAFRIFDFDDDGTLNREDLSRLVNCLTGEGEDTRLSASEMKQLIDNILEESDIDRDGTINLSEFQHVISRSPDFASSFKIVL
Results filed as inconclusive are left out. Activity calls are given as the source filed them. Calls follow the shape of the dose curve; as a rule, active = well fitted inhibition curve with a large enough effect; inconclusive = small, poorly fitted or top-dose-only effect; inactive = flat fitted curve, though single readings scatter.
measurement_name: outcome

The following compounds have reported results that may help.
O=C(Nc1cccc2nn(-c3ccc(F)cc3)cc12)c1ccccn1 ... inactive
CCOC(=O)C1CCN(C(=O)C(C)(C)NC(=O)Nc2ccc3c(c2)CCC3)CC1 ... inactive
CCOC(=O)c1ccc(-n2cnc3cc(C(=O)N4CCCCC4)ccc32)cc1 ... inactive
O=C(O)c1ccc2c(c1)C(=O)N([C@H](Cc1cccc3ccccc13)C(=O)O)C2=O ... inactive
Cc1cccc(-c2ccc3ncnc(NCc4cccs4)c3c2)c1 ... inactive

Input: // lookup outcome for Cc1cc(C)nc(NC(=S)N2CCN(c3nccc(C(F)(F)F)n3)CC2)c1
Output: inactive

Input: Look up outcome: Cc1ccc(-c2ccc(=O)n(CC(=O)NCCCN(C)C)n2)cc1
Output: inactive

Input: Recorded outcome for CCOC(=O)c1ccoc1-c1ccc2ncnc(NCCc3cnc[nH]3)c2c1 , please?
Output: inactive

Input: Any idea what outcome was measured for O=S(=O)(Nc1ccc(O)c2ncccc12)c1ccccc1F ?
Output: inactive

Input: Item under review: Cc1ccc(N2CCC(CNc3nc(-c4ccccc4C(C)C)ncc3C)CC2)cn1 . Reported outcome?
Output: inactive

---

assay: NFAT Signaling Pathway (AID 444); details: Jurkat NFAT-bla M1, carbachol, beta-lactamase ratio, 5 h; at 7.69 µM (top of the series) unless noted;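 also: carbachol stimulus at about its EC50 of 1 µM final; % is scaled to controls: 0 for no effect and ±100 for the full control effect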
Records with an inconclusive call do not appear.
Recorded measurements of activity change, negative = inhibition, one per entry
// note: answer is a bare numeric in %

Input: Quick one: activity change, negative = inhibition of CCNc1ncc2nc(-c3cn(C)c4ccccc34)c(=O)n(C)c2n1 ?
Output: 2.68

Input: Consider the compound shown here: CS(=O)(=O)N1CCC2(CCCN(c3ccccn3)C2)CC1 What is its recorded activity change, negative = inhibition?
Output: 4.17

Input: Look at this compound and give its reported activity change, negative = inhibition. CN(C)C(=O)c1ccc(-c2cncnc2NCCc2cnc[nH]2)cc1
Output: 18.2

Input: For CN(Cc1ccco1)c1ncnc2ccc(-c3ccccc3Cl)cc12 , what is its reported activity change, negative = inhibition?
Output: -13.6

Input: Reported activity change, negative = inhibition for O=c1c(CCc2ccccc2)nc2cnc(N3CCNCC3)nc2n1CCc1ccccc1 : what is it?
Output: 27.2
